Cited source: patent US12428423B2

# key: entry, value: IC50
TARGET_OR_TEST_SYSTEM: CDK4/cyclin D1 (Homo sapiens (Human), UniProt P11802)
Sequence (P11802 whole entry): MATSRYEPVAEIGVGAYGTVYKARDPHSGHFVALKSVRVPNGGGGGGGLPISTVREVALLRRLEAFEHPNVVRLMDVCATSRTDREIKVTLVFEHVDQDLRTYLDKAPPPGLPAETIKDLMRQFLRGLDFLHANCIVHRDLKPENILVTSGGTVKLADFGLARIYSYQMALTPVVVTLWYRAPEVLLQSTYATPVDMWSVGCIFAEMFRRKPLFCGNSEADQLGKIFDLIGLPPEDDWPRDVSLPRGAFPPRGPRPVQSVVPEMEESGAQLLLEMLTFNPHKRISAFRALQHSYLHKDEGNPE
Sequence (P24385 whole entry partner): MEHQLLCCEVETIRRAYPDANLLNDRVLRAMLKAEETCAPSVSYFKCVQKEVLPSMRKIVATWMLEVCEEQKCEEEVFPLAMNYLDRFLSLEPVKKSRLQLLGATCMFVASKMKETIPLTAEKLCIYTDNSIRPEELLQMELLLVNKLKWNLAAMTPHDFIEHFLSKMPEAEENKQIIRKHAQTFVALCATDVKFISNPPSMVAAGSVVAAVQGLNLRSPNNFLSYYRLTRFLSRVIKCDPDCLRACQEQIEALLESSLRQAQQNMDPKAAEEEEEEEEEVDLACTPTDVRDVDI
TEST_PROTOCOL: Biochemical kinase inhibitory assay, CDK4/cyclin D1
EXPERIMENTAL_SETUP: recombinant CDK4/cyclin D1; in the presence of 10 μM ATP

> print(dat)
                                   molecule  observed.result
1  Cc1cc(Nc2ncc3ccc4ncn(C5CC5)c4c3n2)ncc1N1CCNCC1 [Compound I-48]      10 to 50 nM
2  Cc1cc2cnc(Nc3ccc(N4CCNCC4)cn3)nc2c2c1ncn2C(C)C [Compound I-72]       2 to 10 nM
3  Cc1cc(Nc2ncc3cc(C)c4ncn(C(C)C)c4c3n2)ncc1N1CCOCC1 [Compound I-76]      10 to 50 nM
4  CC(C)n1cnc2ccc3cnc(Nc4ccc(N5CCC(N(C)C)CC5)c(F)n4)nc3c21 [Compound I-20]      10 to 50 nM
5  CCn1cnc2ccc3cnc(Nc4ccc(N5CCOCC5)cn4)nc3c21 [Compound I-45]      10 to 50 nM
6  CC(C)n1cnc2ccc3cnc(Nc4ccc(N5CCCCC5)cn4)nc3c21 [Compound I-16]      10 to 50 nM

Check the records and state IC50 for CC(C)n1cnc2ccc3cnc(Nc4ccc(N5CCOCC5)cn4)nc3c21 [Compound I-23]
< 2 nM

Complete the entry with IC50 for Cc1nc(Nc2ncc3c(C)cc4ncn(C(C)C)c4c3n2)ccc1N1CCNCC1 [Compound I-64]
50 to 100 nM
